// values below are reported mass density
Conditions: 298.15 K; 101.33 kPa; Liquid; Vibrating tube method
± gives the expanded uncertainty stated by the source.
test readout: mass density

> print(dat)
                                 compound                result
1  CCCCOCCOC(C)=O [2-butoxyethyl acetate]    935.12 ± 0.3 kg/m3
2           CC(Cl)CCl (centres undefined)  1148.95 ± 0.46 kg/m3
3  COCCOC(C)=O [2-methoxyethyl ethanoate]    999.76 ± 0.3 kg/m3
4  CCOCCOC(C)=O [2-ethoxyethyl ethanoate]      967.36 ± 1 kg/m3

----------
refractive index values, listed per item
Assay: refractive index (Na D-line) (dimensionless)
Settings: 298.15 K; 101.33 kPa; Liquid; refractometer
test readout: refractive index

> print(dat)
                                 compound  quantitative.result
1  CCOCCOC(C)=O [2-ethoxyethyl ethanoate]              1.40311
2           CC(Cl)CCl (centres undefined)              1.43653
3  CCCCOCCOC(C)=O [2-butoxyethyl acetate]              1.41183
4  COCCOC(C)=O [2-methoxyethyl ethanoate]              1.39988
